- System: Enterococcus faecalis (EFA)
- Assay Details: MIC, two-fold agar dilution (CLSI), clinical isolates
- Assay type: cell-based
- Particulars: clinical isolate EFA 15-5
Kindly state Anti-bacterial activity (MIC), strain EFA 15-5 for each of the entries shown.

[Q] Identify the reported Anti-bacterial activity (MIC), strain EFA 15-5 for the following entry. CCCC[C@H](CC(=O)NO)C(=O)N1CC2(CC2)C[C@H]1C(=O)Nc1ccc(N2CCOCC2)cc1
[A] > 32 mg/L

[Q] State its Anti-bacterial activity (MIC), strain EFA 15-5 for this molecule: CCCC[C@H](CC(=O)NO)C(=O)N1CC2(CC2)C[C@H]1C(=O)Nc1ncccc1F
[A] > 32 mg/L

[Q] Fill in reported Anti-bacterial activity (MIC), strain EFA 15-5 for this entry: CCCC[C@H](CC(=O)NO)C(=O)N1CC2(CC2)C[C@H]1C(=O)Nc1cnn(CCN(C)C)c1
[A] > 32 mg/L

[Q] State, in one line, measured Anti-bacterial activity (MIC), strain EFA 15-5 of CCCC[C@H](CC(=O)NO)C(=O)N1CC2(CC2)C[C@H]1c1nc2ccccc2[nH]1
[A] > 32 mg/L

[Q] // Input: CCCC[C@H](CC(=O)NO)C(=O)N1CC2(CC2)C[C@H]1C(=O)Nc1nc(C(F)(F)F)cs1 . Output its Anti-bacterial activity (MIC), strain EFA 15-5 only.
[A] 8 mg/L

[Q] Specify reported Anti-bacterial activity (MIC), strain EFA 15-5 for the molecule shown: O=CN(O)C[C@@H](CC1CCCC1)C(=O)N1CC2(CC2)C[C@H]1c1nc2ccccc2[nH]1
[A] 16 mg/L

[Q] # return recorded Anti-bacterial activity (MIC), strain EFA 15-5 for entry O=C(C[C@@H](CC1CCCC1)C(=O)N1CC2(CC2)C[C@H]1C(=O)Nc1ccncn1)NO
[A] > 32 mg/L

[Q] Fill in Anti-bacterial activity (MIC), strain EFA 15-5 for record CCCC[C@H](CC(=O)NO)C(=O)N1CC2(CC2)C[C@H]1C(=O)Nc1cnccn1
[A] > 32 mg/L

[Q] Look up Anti-bacterial activity (MIC), strain EFA 15-5 of Cc1cnc(NC(=O)[C@@H]2CC3(CC3)CN2C(=O)[C@@H](CC(=O)NO)CC2CCCC2)s1 and report it.
[A] 32 mg/L

[Q] Annotate the molecule CCCC[C@H](CC(=O)NO)C(=O)N1CC2(CC2)C[C@H]1C(=O)Nc1cc(C)on1 with its measured Anti-bacterial activity (MIC), strain EFA 15-5.
[A] 16 mg/L

[Q] Using known records, supply Anti-bacterial activity (MIC), strain EFA 15-5 for O=C(C[C@@H](CC1CCCC1)C(=O)N1CC2(CC2)C[C@H]1C(=O)Nc1ccc(F)cn1)NO
[A] 32 mg/L

[Q] Check the records and state Anti-bacterial activity (MIC), strain EFA 15-5 for O=CN(O)C[C@@H](CC1CCCC1)C(=O)N1CC2(CC2)C[C@H]1C(=O)Nc1nccs1 (stereo in doubt)
[A] 4 mg/L

[Q] Using the record for CCCC[C@H](CC(=O)NO)C(=O)N1CC2(CC2)C[C@H]1C(=O)Nc1nc(C)cs1 , state its measured Anti-bacterial activity (MIC), strain EFA 15-5.
[A] 8 mg/L

[Q] Give the reported value of Anti-bacterial activity (MIC), strain EFA 15-5 for this record: CCCC[C@H](CC(=O)NO)C(=O)N1CC2(CC2)C[C@H]1C(=O)Nc1ccncn1
[A] > 32 mg/L

[Q] Please report the measured Anti-bacterial activity (MIC), strain EFA 15-5 for CCCC[C@H](CC(=O)NO)C(=O)N1CC2(CC2)C[C@H]1c1nc2ccccc2n1CCN(C)C
[A] > 32 mg/L

[Q] Give the measured Anti-bacterial activity (MIC), strain EFA 15-5 for CCCC[C@H](CC(=O)NO)C(=O)N1CC2(CC2)C[C@H]1C(=O)Nc1ncco1
[A] > 32 mg/L

[Q] Supply reported Anti-bacterial activity (MIC), strain EFA 15-5 belonging to this molecule: CCCC[C@H](CC(=O)NO)C(=O)N1CC2(CC2)C[C@H]1C(=O)Nc1cccnn1
[A] > 32 mg/L

[Q] Look up Anti-bacterial activity (MIC), strain EFA 15-5 of CCCC[C@H](CC(=O)NO)C(=O)N1CC2(CC2)C[C@H]1C(=O)Nc1ccc(F)cn1 and report it.
[A] > 32 mg/L

[Q] // fetch Anti-bacterial activity (MIC), strain EFA 15-5 given entry CCCC[C@H](CC(=O)NO)C(=O)N1CC2(CC2)C[C@H]1C(=O)Nc1ncc(C)s1
[A] > 32 mg/L

[Q] Supply Anti-bacterial activity (MIC), strain EFA 15-5 value. Item: O=C(C[C@@H](CC1CCCC1)C(=O)N1CC2(CC2)C[C@H]1C(=O)Nc1ccc(N2CCOCC2)cc1)NO
[A] > 32 mg/L

[Q] Answer with the recorded Anti-bacterial activity (MIC), strain EFA 15-5 for the molecule listed here: CCCC[C@H](CC(=O)NO)C(=O)N1CC2(CC2)C[C@H]1C(=O)NC1CC1
[A] > 32 mg/L

[Q] Report measured Anti-bacterial activity (MIC), strain EFA 15-5; entry is CCCC[C@H](CC(=O)NO)C(=O)N1CC2(CC2)C[C@H]1C(=O)Nc1ccno1
[A] > 32 mg/L

[Q] Find the measured Anti-bacterial activity (MIC), strain EFA 15-5 of O=C(C[C@@H](CC1CCCC1)C(=O)N1CC2(CC2)C[C@H]1C(=O)Nc1cnccn1)NO and report it.
[A] > 32 mg/L

[Q] Look up and state reported Anti-bacterial activity (MIC), strain EFA 15-5 for O=CN(O)C[C@@H](CC1CCCC1)C(=O)N1CC2(CC2)C[C@H]1C(=O)Nc1nncs1
[A] 4 mg/L

[Q] Output measured Anti-bacterial activity (MIC), strain EFA 15-5 for this item: CCCC[C@H](CC(=O)NO)C(=O)N1CC2(CC2)C[C@@H]1c1nc2ccccc2[nH]1
[A] > 32 mg/L

[Q] Answer with reported Anti-bacterial activity (MIC), strain EFA 15-5 of CCCC[C@H](CC(=O)NO)C(=O)N1CC2(CC2)C[C@H]1C(=O)Nc1cc(C(C)(C)C)on1
[A] > 32 mg/L
